Assay: Pharmacokinetic evaluation of QC-199 in mouse plasma, IV infusion
Format: in vivo
Conditions: male, CD-1, mouse, in vivo, IV infusion, from Lambda z, read-out: T½ (converted)
measured_property: half-life (h)
Write the number in h without appending the unit.

molecule "Brc1ccc(CCCCn2ccnc2)cc1.Cl" , half-life observed: 18

###

Target: HO-2 (rat brain) (Rattus norvegicus)
Construct: brain microsomes were used as a source of HO-2; from tissue; host or cells: brain microsomal fraction of adult male Sprague-Dawley rats
Sequence (P23711 whole entry): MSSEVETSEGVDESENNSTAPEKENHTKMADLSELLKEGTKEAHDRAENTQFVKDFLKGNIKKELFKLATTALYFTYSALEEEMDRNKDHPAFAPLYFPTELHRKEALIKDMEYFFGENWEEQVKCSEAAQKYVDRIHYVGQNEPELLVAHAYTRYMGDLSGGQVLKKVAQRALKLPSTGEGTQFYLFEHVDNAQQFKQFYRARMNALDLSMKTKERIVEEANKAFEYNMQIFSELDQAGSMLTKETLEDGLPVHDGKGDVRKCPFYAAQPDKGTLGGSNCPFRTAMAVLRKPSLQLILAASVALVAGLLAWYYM
Assay: HO enzymatic activity in rat brain microsomal fraction (CO formed from methemalbumin, gas chromatography)
Format: biochemical
Structures can show the parent of a compound that is named as a salt.
measured_property: IC50

molecule CC(O)C(Cc1ccc(Cl)cc1)n1ccnc1 (racemic) [hydrochloride] , IC50 observed: > 100 µM

molecule OC(CCc1ccccc1)Cn1cncn1 (racemic) [hydrochloride] , IC50 observed: 54 µM

molecule Nc1ccc(SC[C@H]2CO[C@@](CCc3ccc(Cl)cc3)(Cn3ccnc3)O2)cc1 [dihydrochloride] , IC50 observed: > 100 µM

molecule "NCC(=O)c1ccc(Br)cc1" , IC50 observed: > 100 µM

molecule C[C@H]1CO[C@@](CCc2ccc(Cl)cc2)(Cn2ccnc2)O1 [hydrochloride] , IC50 observed: > 100 µM

molecule "Cc1ccc(S(=O)(=O)OC[C@@H]2CO[C@@](CCc3ccc(Cl)cc3)(Cn3ccnc3)O2)cc1" , IC50 observed: 3 µM

molecule "COc1ccc(CCN2CCC(Nc3nc4ccccc4[nH]3)CC2)cc1" , IC50 observed: > 100 µM

molecule CC(=O)C(Cc1ccc(Cl)cc1)n1ccnc1 (racemic) [hydrochloride] , IC50 observed: > 100 µM

meta.source: patent US20140155445A1
